meta.source: the MegaScale stability set (Tsuboyama et al. 2023)

B1: 5KPH (parent)
chain: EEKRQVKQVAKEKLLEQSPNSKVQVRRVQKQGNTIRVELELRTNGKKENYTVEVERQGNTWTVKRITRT

# Variants of: B1
# EXPERIMENT DESCRIPTION: folding stability dG (cDNA display proteolysis); higher = more stable
# MEASUREMENT CONTEXT: PBS, room temperature
ENDPOINT: folding stability dG (kcal/mol)
Give the value in kcal/mol but do not write kcal/mol after it.

Task: Would you mind telling me what folding stability dG value was observed for V25H ?
Output: 2.19

Task: Would you mind telling me what folding stability dG value was observed for V63P ?
Output: 2.8

Task: Would you mind telling me what folding stability dG value was observed for Y50T ?
Output: 1.47

Task: Would you mind telling me what folding stability dG value was observed for E1N ?
Output: 3.37

Task: Would you mind telling me what folding stability dG value was observed for E48V ?
Output: 3.63

Task: Would you mind telling me what folding stability dG value was observed for E2Y ?
Output: 3.08

Task: Would you mind telling me what folding stability dG value was observed for V37R ?
Output: -0.176

Task: Would you mind telling me what folding stability dG value was observed for V9Y ?
Output: 3.38

Task: Would you mind telling me what folding stability dG value was observed for A10E ?
Output: 1.78

Task: Would you mind telling me what folding stability dG value was observed for K11D ?
Output: 1.94

Task: Would you mind telling me what folding stability dG value was observed for S18M ?
Output: 4.05

Task: Would you mind telling me what folding stability dG value was observed for T67L ?
Output: 4.01

Task: Would you mind telling me what folding stability dG value was observed for R68I ?
Output: 3.67

Task: Would you mind telling me what folding stability dG value was observed for V63D ?
Output: 0.956

Task: Would you mind telling me what folding stability dG value was observed for A10H ?
Output: 1.69

Task: Would you mind telling me what folding stability dG value was observed for T34K ?
Output: 3.4
